target: Protein A, native biotinylated (Sigma P2165) (Staphylococcus aureus, UniProt P38507 37-477); test: SPR; kinetic 1:1 fit; ka 1.23e3 M-1s-1, kd 1.66e-3 s-1; conditions: tags: biotin, label: 5'-fluorescein
MEASURE: Kd

Entry PA#2/8 5'-fluorescein (structured_DNA) DNA: ATACCAGCTTATTCAATTAGCAACATGAGGGGGATAGAGGGGGTGGGTTCTCTCGGCTACAATCGTAATCAGTTAG — recorded Kd = 1.35 µM
